- TEST DETAILS: yeast display, Sf9 membrane polyspecificity reagent, FACS + sequencing; frameworks hold sequencing errors
RECORDED ENDPOINT: polyreactivity (PSR sort gate)

Worked set:
- SEQUENCE CODE: "QVQLVESGGGLVQAGRSLRLSCAASGRIFADYAMGWYRQAPGKERQLVAAITSGGTTYADSVKGRFTISRDNAKNTVYLQMNSLKPEDSAVYYCAAQGQGRTGGFGKGSTYGYWGQGTQVTVSS"
  polyreactivity (PSR sort gate): "low polyreactivity"
- SEQUENCE CODE: "QFQLVESGGGLVQAGGSLRLSCAASGRTFTSNAMGWYRQAPGKERELVAAIDDGGSTNYADSVKGRFTISRDNAKNTVYLQMNSLKPEDTAVYYCATGYWELRYDYWGQGTQVTVSS"
  polyreactivity (PSR sort gate): "low polyreactivity"
- SEQUENCE CODE: "QVQLVESGGGLVQAGGSLRLSCAASGRTFRFYVMGWYRQAPGKERELVAAISRGGGSTYYADSVKGRFTISRDNAKNTVYLQMNSLKPEDTAVYYCAAKPYKTRSSYWGDYYWGQGTQVTVSS"
  polyreactivity (PSR sort gate): "high polyreactivity"
- SEQUENCE CODE: "QVQLVESGGGLVQAGGSLRLSCAASGRIFSSNAMGWYRQAPGKERELVAAITSGGSTYADSVKGRFTISRDNAKNTVYLQMNSLKPEDTAVYYCAKDGPGGGTRIYDYWGHGTQVTVSS"
  polyreactivity (PSR sort gate): "high polyreactivity"

// next item, polyreactivity (PSR sort gate) requested
Reported polyreactivity (PSR sort gate) for `QVQLVESGGGLLQAGGSLRLSCAASGRIFSIYAMGWYRPAPGKEREMVAAIRRGGSTSYADSVKGRFTISRDNAKNTVYLLMNSLKPEDTAVYYCAARLRYLGYDYWGQGTQVTVSS` : what is it? high polyreactivity

====

- TEST DETAILS: yeast display, Sf9 membrane polyspecificity reagent, FACS + sequencing; frameworks hold sequencing errors
RECORDED ENDPOINT: polyreactivity (PSR sort gate)

Worked set:
- SEQUENCE CODE: "QVQLVESGGGLVQAGGSLRLSCAASGSIFAVYAMGWYRQAPGKERELVASISRTGTTNYADSVKGRFTISRDNAKNTVYLQMNSLKPEDSAVYYCNADAYLYYKYHWGFTFYQYVYWGQGTEVTVSS"
  RECORDED ENDPOINT: "polyreactivity (PSR sort gate)"
  REPORTED RESULT: "low polyreactivity"
- SEQUENCE CODE: "QVQLVESGGGLVQAGGSLRLSCAASGRIFSYYAMGWYRQAPGKERELVAAISWSGGSTYYADSVKGRFTISRDNAKNTVYLQMNSLKPEDTAVYYCAAGVHWDRGDYWGQGTQVTVSS"
  RECORDED ENDPOINT: "polyreactivity (PSR sort gate)"
  REPORTED RESULT: "low polyreactivity"
- SEQUENCE CODE: "QVQLVESGGGLVQAGGSLRLSCAASGITFCYYVMGWYRQAPGKERELVAAISSGSSTYYADSVKGRFTISRDNAKNTVYLQMNSLKPEDTAVYYCAAESVYWLEFRYYYWGQGTQVTVSS"
  RECORDED ENDPOINT: "polyreactivity (PSR sort gate)"
  REPORTED RESULT: "low polyreactivity"
- SEQUENCE CODE: "QVQLVESGGGLVQAGGSLRLSCAASGRIFWYYAMGWYRQAPGKERELVASITRGNNTYYADSVKGRFTISRDNAKNPVYLQMNSLIPEDTAVYYCNAYRVRYTVDSVFYGYDYWGQGTHVTVSS"
  RECORDED ENDPOINT: "polyreactivity (PSR sort gate)"
  REPORTED RESULT: "high polyreactivity"
- SEQUENCE CODE: "QVQLVESGGGLLQAGGSLRLSCAASGRIFYYYAMGWYRQAPGKEREFVARNRSSGGSTYADSVKGRFTISRDNAKNTVYLQMNSLKPEDTAVYYCARDGYTAVEYDYWGQGTQVTVSS"
  RECORDED ENDPOINT: "polyreactivity (PSR sort gate)"
  REPORTED RESULT: "low polyreactivity"
- SEQUENCE CODE: "QVQLVESGGGLVQAGGSLRLSCAASGRILYGYTMGWYRQAPGKEREFVARITRRGGRTNYADSVKGRFTISRDNAKNTVYLQMNSLKPEDTAVYYCAADPIRDSWWQYFQDGREYDYWGQGTQVTVSS"
  RECORDED ENDPOINT: "polyreactivity (PSR sort gate)"
  REPORTED RESULT: "low polyreactivity"
- SEQUENCE CODE: "QVQLVESGGGLVQAGGSLRLSCAASGRTFYKNTMGWYRQAPGKERELVATISQRGGSTYYADSVKGRFTISRDNAKNTVYLQMNSLKPEDTAVYYCNARRTSYTSQGYDYWGQGTQVTVSS"
  RECORDED ENDPOINT: "polyreactivity (PSR sort gate)"
  REPORTED RESULT: "high polyreactivity"
- SEQUENCE CODE: "QVQLVESGGGLVQAGGSLRLSCAASGFIFSFDNAMGWYRQAPGKERELVAAISSGTTTHYADSVKGRFTISRDNAKNTVYLQMNSLKREDTAVYYCAAGTATDVASIGATKDYDYWGQGTQGTVSS"
  RECORDED ENDPOINT: "polyreactivity (PSR sort gate)"
  REPORTED RESULT: "low polyreactivity"

Reported polyreactivity (PSR sort gate) for `QVQLVESGGGLVQAGGSLRLSCAASGGIFYGYAMGWYRQAPGKERELVAAISDSGGSTYYADSVKGRFTNSRDNAKYTGYVQMNSLKPEVTAVYYCATDAPVGGYVSEGDYWGQGTQVTVSS` : what is it? low polyreactivity

Moving on to the next sequence: `QVQLVESGGGLVQAGGSLRLSCAASGFTFFGNAMGWYRQAPGKERELVAAITGRAGRTYYADSVKGRFTISRDNAKNTVYLQMNSLKPEDTAVYYCAAKIRTSDMGYWGQGTQVTVSS` high polyreactivity

Moving on to the next sequence: `QVQLVESGGGLVQAGGSLRLSCAASGFISRAYAMGWYRQAPGKERELVAAISVRVGSTYYADSVKGRFTISRDNAKNTVYLQMNSLKPEDTAVYYCAALRPWPRYDYWGQGTQVTVSS` high polyreactivity

====

- TEST DETAILS: yeast display, Sf9 membrane polyspecificity reagent, FACS + sequencing; frameworks hold sequencing errors
RECORDED ENDPOINT: polyreactivity (PSR sort gate)

Worked set:
- SEQUENCE CODE: "QFQLVESGGGLDQAGGSLRLSCAASGSIFWYYAMGWYRQAPGKERELVAAISISGSTYYADSVKGRFTISRDNAKNTVYLQMNSLKPEDTAVYYCAARKFFWRSNYDYWGQGTQVTVSS"
  RECORDED ENDPOINT: "polyreactivity (PSR sort gate)"
  REPORTED RESULT: "low polyreactivity"
- SEQUENCE CODE: "QVQLVESGGGLVQAGGSLRLSCAASGSIFSQYVMGWYRQAPGKERELVAAISWSGGHTYYADSVKGRFTISRDNAKNTVYLQMNSLKPEDTAVYYCATVPRKTPGNAELDYWGQGTQVTVSS"
  RECORDED ENDPOINT: "polyreactivity (PSR sort gate)"
  REPORTED RESULT: "high polyreactivity"
- SEQUENCE CODE: "QVQLVESGGGLVQAGGSLRLSCAASVYTFYKYAMGWYRQAPGKERELVAAISSSGGSTYYADSVKGRFTISRDNAKNTVYLQMNSLKPEDTAVYYCAAYVYSNDYDYWGQGTQVTVSS"
  RECORDED ENDPOINT: "polyreactivity (PSR sort gate)"
  REPORTED RESULT: "high polyreactivity"
- SEQUENCE CODE: "QVQLVESGGGLVQAGGSLRLSCAASGSIFAHYTMGWYRQAPGKERELVAAISGSGGSTYYADSVKGRFTISCDNAKNTVYLQMNSLKPEDTAVYYCNKRYRPVGPYDYWGQGTQVTVSS"
  RECORDED ENDPOINT: "polyreactivity (PSR sort gate)"
  REPORTED RESULT: "high polyreactivity"
- SEQUENCE CODE: "QVQLVESGGGLVQAGGSLRLSCAASGSTFRDNTMGWYRQAPGKERELVAAITKSGGSTYYADSVKGRFTISRDTAKNTVYLQMNSLKPEDTAVYYCAAGARPRDKPVYFLYRYDYWGQGTQGTVSS"
  RECORDED ENDPOINT: "polyreactivity (PSR sort gate)"
  REPORTED RESULT: "low polyreactivity"
- SEQUENCE CODE: "QVQLVESGGGLVQAGGSLRLSCAASGFTFSYYVMGLYRQAPGKERELVAAITSGGSTYYADSVKGRFTISRDNAKNTVYLQMNSLKPEDTAVYYCNARTYSRVTRQTYRYRPYDYWGQGTQVTVSS"
  RECORDED ENDPOINT: "polyreactivity (PSR sort gate)"
  REPORTED RESULT: "high polyreactivity"
- SEQUENCE CODE: "QVQLVESGGCLVQAGCSGRLSCAASGYTLTINVMGWDRQAPGKERELVAAITTSCASTNYADSVKGRFTISRDNAKNSVYLKMNSLKPEDTSVYYCAADYLSFVVVKLYGYWGQRTQVTVSS"
  RECORDED ENDPOINT: "polyreactivity (PSR sort gate)"
  REPORTED RESULT: "low polyreactivity"
- SEQUENCE CODE: "QVQLVESGGGLVQAGGSLRLSCAAYGSIFKRYAMGWYRQAPGKERELVASNSSSGSSTNYADSVKGRFTISRDTAKNTVYLQMNSLKPEDTSVYYCAADTKASGTPVYYSYLYDYWGQGTHVTVSS"
  RECORDED ENDPOINT: "polyreactivity (PSR sort gate)"
  REPORTED RESULT: "high polyreactivity"

Reported polyreactivity (PSR sort gate) for `QVQLVESGGGLVQAGGSLRLSCAASGSIFRRYAMGWYRKAPGKERELVAGISRGGGITYYADSVKGRFTISRDNAKNTVYLQMNSLKPEDTAVYYCAARIGATYWVDWTHRAYDYWGQGTQVTVSS` : what is it? high polyreactivity

Moving on to the next sequence: `QVQLVESGGGLVQAGGRLRLSCAASGCTSGLNVRGWYRQAPGQERELVAAMSTGGGSTYYADSVKGPFTISRDNAKNTVYLQMTSLQPEDTAVYYCAADQSSVQDFIYNYWAQGTQVTVSS` low polyreactivity

Moving on to the next sequence: `QVQLVESGGGLVQAGGSLRLSCAASGRTFRWYAMGWYRQAPGKERELVAAITSDGRTYYADSVKGRFTISRDNAKNTVYLQMNSLNPEDTAVYYCNAACRYAFPFGYNYWGQGTQVTVSS` high polyreactivity

Data provenance: the nanobody polyreactivity screen of Harvey et al. (2022)
